biological target: GSK3β kinase (Homo sapiens); assay: GSK3β kinase activity (Ser/Thr 09 peptide Z-lyte FRET assay); assay type: biochemical; details: recombinant kinase, 46 μM ATP, one hour at room temperature; read-out: EC50
Sequence (P49841 whole entry): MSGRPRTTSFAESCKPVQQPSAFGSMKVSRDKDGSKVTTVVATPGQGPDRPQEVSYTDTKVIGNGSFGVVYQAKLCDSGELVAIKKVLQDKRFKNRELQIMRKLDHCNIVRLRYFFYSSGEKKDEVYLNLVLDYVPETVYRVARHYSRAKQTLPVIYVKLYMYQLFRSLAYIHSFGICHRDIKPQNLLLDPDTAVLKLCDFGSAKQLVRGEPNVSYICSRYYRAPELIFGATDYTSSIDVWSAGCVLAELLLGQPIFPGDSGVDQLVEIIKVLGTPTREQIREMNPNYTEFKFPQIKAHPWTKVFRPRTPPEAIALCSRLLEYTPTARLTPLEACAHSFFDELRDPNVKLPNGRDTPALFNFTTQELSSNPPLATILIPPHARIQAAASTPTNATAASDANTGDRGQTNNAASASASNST
pEC50: −log10 of the molar value.
Measure: pEC50

- Cc1nnc(-c2ccc3cnc(NC(=O)CN4C[C@@H]5C[C@H]4CO5)nc3c2)s1: 7.47
- CN(CC(=O)Nc1cc2cc(-c3cnn(C)c3)ncc2cn1)C1CCC1: 8.00
- CN1CCC(c2nc(C(=O)Nc3cc4nc(-c5cnn(C)c5)ccc4cn3)co2)CC1: 5.16
- Cn1ncc(-c2ccc3cnc(NC(=O)c4ccnc(N5CCOCC5)c4)cc3n2)c1CN1CCOCC1: 5.58
- CN1CCC(n2cc(C(=O)Nc3cc4nc(-c5cnn(C)c5)ccc4cn3)cn2)CC1: 5.54

P. Cn1cncc1-c1ccc2cnc(NC(=O)c3cccc(CN4CCCC4)c3)nc2c1
Q. CCN(CC)CC(=O)Nc1cc2nc(-c3cnn(C)c3CN3CCCCC3)ccc2cn1
R. CN(C)C1CCN(c2cc(C(=O)Nc3cc4nc(-c5cn(C)nn5)ccc4cn3)ccn2)CC1
S. Nc1cncc(-c2ccc3cnc(NC(=O)c4ccc(OC5CCNCC5)cc4)cc3n2)c1
T. CN(CC(=O)Nc1ncc2ccc(-c3cnn(C)c3)cc2n1)C1CCC1
Problem: Endpoint returns the given compounds ordered by ascending pEC50. Use the labels to give the requested order.
Solution: S, P, Q, R, T
(S: 5.33, P: 5.56, Q: 5.93, R: 6.18, T: 7.35)

A. CN(C)[C@H]1CC[C@H](C(=O)Nc2cc3cc(-c4cncs4)cnc3cn2)CC1
B. Cn1cc(-c2cc3cc(NC(=O)C4CC4)ncc3cn2)cn1
Problem: For A and B , which recorded pEC50 is lower? Label of pick, please.
Solution: A
(A: 5.42, B: 8.70)

P. CN1CCN(c2cccc(C(=O)Nc3cc4cc(-c5cnn(C)c5)ccc4nn3)c2)CC1
Q. Cn1cc(-c2cnc3cnc(NC(=O)CCc4ccccc4)cc3c2)cn1
Problem: Select the item with the higher value of pEC50 from the options P and Q listed. Returns: label corresponding to the selected item.
Solution: Q
(Q: 6.34, P: 5.58)
